Biological target: BTK protein (Homo sapiens)
Construct: endogenous in cells; host or cells: TMD-8 cells
Sequence (Q06187 whole entry): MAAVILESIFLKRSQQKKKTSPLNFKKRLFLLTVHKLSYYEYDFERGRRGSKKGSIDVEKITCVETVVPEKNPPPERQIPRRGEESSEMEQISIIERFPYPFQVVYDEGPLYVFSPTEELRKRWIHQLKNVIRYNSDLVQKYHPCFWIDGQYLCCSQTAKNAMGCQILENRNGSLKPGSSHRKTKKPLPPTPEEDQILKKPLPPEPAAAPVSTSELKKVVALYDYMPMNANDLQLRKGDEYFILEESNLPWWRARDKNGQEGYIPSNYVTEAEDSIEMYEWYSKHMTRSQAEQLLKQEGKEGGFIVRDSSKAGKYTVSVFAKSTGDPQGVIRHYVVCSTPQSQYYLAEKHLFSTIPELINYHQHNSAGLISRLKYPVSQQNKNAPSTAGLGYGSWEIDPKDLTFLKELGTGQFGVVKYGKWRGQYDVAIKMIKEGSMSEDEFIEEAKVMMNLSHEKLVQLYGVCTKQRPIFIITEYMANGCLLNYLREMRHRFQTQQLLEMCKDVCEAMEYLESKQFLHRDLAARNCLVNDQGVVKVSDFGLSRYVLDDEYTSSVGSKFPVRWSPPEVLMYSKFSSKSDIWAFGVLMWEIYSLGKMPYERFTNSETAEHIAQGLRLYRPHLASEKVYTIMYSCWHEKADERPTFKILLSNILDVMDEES
Assay: Measurement of BTK protein degradation ability in TMD-8 cells (Western blotting)
Assay type: cell-based
Settings: compound 1 nM, harvested after 24 hours
ASSAY ENDPOINT: BTK degradation (%) 1 nM
Your answer should be a plain number; it is taken to be in %.

Annotate the compound Cc1cc(-c2ccnc(Nc3ccc(CN4CCN(CC5CCN(c6cccc(NC7CCC(=O)NC7=O)c6)CC5)CC4)cc3)n2)ccc1CNC(=O)c1cn(C(C)(C)C)nn1 (centres unmarked) [Example 69] with its measured BTK degradation (%) 1 nM.
61.5

Annotate the compound Cc1cc(-c2ccnc(Nc3cnn(C4CCN(CC5CCN(c6ccc7c(c6)C(=O)N(C6CCC(=O)NC6=O)C7=O)CC5)CC4)c3)n2)ccc1CNC(=O)c1cn(C(C)(C)C)nn1 (centres unmarked) [Example 39] with its measured BTK degradation (%) 1 nM.
65.5

Annotate the compound Cc1cc(-c2ccnc(Nc3cnn(C4CCN(CC5CCN(C(=O)c6cccc(NC7CCC(=O)NC7=O)c6)CC5)CC4)c3)n2)ccc1CNC(=O)N1CC(OC(C)C)C1 (centres unmarked) [Example 91] with its measured BTK degradation (%) 1 nM.
4.5

Annotate the compound Cc1cc(-c2ccnc(Nc3ccc(N4CCC(CN5CCC(c6ccc(N7CCC(=O)NC7=O)cc6)CC5)CC4)cc3)n2)ccc1CNC(=O)c1cn(C(C)(C)C)nn1 [Example 139] with its measured BTK degradation (%) 1 nM.
15.5

Annotate the compound Cc1cc(-c2ccnc(Nc3ccc(C4CCN(CC5CN(c6ccc7c(c6)C(=O)N(C6CCC(=O)NC6=O)C7=O)C5)CC4)cc3)n2)ccc1CNC(=O)c1cnn(C(C)(C)C)c1 (centres unmarked) [Example 45] with its measured BTK degradation (%) 1 nM.
45.5

Annotate the compound Cc1cc(-c2ccnc(Nc3ccc(N4CCN(CC5CCN(c6cc7c(cc6F)C(=O)N(C6CCC(=O)NC6=O)C7=O)CC5)CC4)cc3)n2)ccc1CNC(=O)N1CC(OC(C)C)C1 (centres unmarked) [Example 12] with its measured BTK degradation (%) 1 nM.
23.5

Annotate the compound Cc1cc(-c2ccnc(Nc3cnn(C4CCN(CC5CN(C(=O)c6cccc(NC7CCC(=O)NC7=O)c6)C5)CC4)c3)n2)ccc1CNC(=O)N1CC(OC(C)C)C1 (centres unmarked) [Example 92] with its measured BTK degradation (%) 1 nM.
7.0

Annotate the compound Cc1cc(-c2ccnc(Nc3ccc(N4CCN(CC5CCN(c6ccc(NC7CCC(=O)NC7=O)cn6)CC5)CC4)cc3)n2)ccc1CNC(=O)c1cn(C(C)(C)C)nn1 (centres unmarked) [Example 62] with its measured BTK degradation (%) 1 nM.
57.0

Annotate the compound Cc1cc(-c2ccnc(Nc3ccc(N4CCC(CN5CCC(c6ccc(NC7CCC(=O)NC7=O)cc6)CC5)CC4)cc3)n2)ccc1CNC(=O)c1cnn(C(C)C)c1 (centres unmarked) [Example 134] with its measured BTK degradation (%) 1 nM.
58.5

Annotate the compound Cc1cc(-c2ccnc(Nc3ccc(CN4CCN(CC5CCN(c6cccc(N7CCC(=O)NC7=O)c6)CC5)CC4)cc3)n2)ccc1CNC(=O)c1cn(C(C)(C)C)nn1 [Example 74] with its measured BTK degradation (%) 1 nM.
43.0

Annotate the compound Cc1cc(-c2ccnc(Nc3ccc(C4CCN(CC5CCN(c6cccc(N7CCC(=O)NC7=O)c6)CC5)CC4)cc3)n2)ccc1CNC(=O)c1cnn(C(C)C)c1 [Example 84] with its measured BTK degradation (%) 1 nM.
36.0
